quantity.measured: melting point

O=C1NC(=O)C(SCCO)=C1SCCO :: 46 to 50 °C
C=CCCNC1=CC(=O)NC1=O :: 68 to 76 °C
O=C(CCCC[C@@H]1SC[C@@H]2NC(=O)N[C@@H]21)NCCOCCOCCN1C(=O)C=C(Br)C1=O (stereo in doubt) :: 95 to 98 °C
CN1C(=O)C=C(Br)C1=O :: 77 to 79 °C

# input Which melting point reading was recorded for the compound COC(=O)[C@H](CSC1=CC(=O)NC1=O)NC(=O)OC(C)(C)C ?
# output 145 to 147 °C

# input // next record O=C1CC2(SCCS2)C(=O)N1
# output 112 to 115 °C

# input What do you get for O=C1C=C(Br)C(=O)N1 ?
# output 148 to 151 °C

# input And what about the compound O=C1NC(=O)C(Sc2ccccn2)=C1Sc1ccccn1 ?
# output 70 to 72 °C

----------
Recorded melting point, one value per entry.

Would you please look over these solved cases?
O=C1NC(=O)C(I)=C1I :: 238 to 241 °C
O=C1NC(=O)C23NCC[C@H]2C[C@H]13 (stereo partly drawn) :: 110 to 113 °C
O=C(CCCC[C@@H]1SC[C@@H]2NC(=O)N[C@@H]21)NCCOCCOCCN1C(=O)C(Br)=C(Br)C1=O (stereo in doubt) :: 100 to 102 °C
CC(C)(C)OC(=O)NCCOCCOCCNC(=O)CCCC[C@@H]1SC[C@@H]2NC(=O)N[C@@H]21 (stereo in doubt) :: 106 to 108 °C
COC(=O)[C@H](CSC1=CC(=O)N(C)C1=O)NC(=O)OC(C)(C)C :: 101 to 103 °C

Shift focus to the following entry.
# input Which melting point is reported for this compound? CCCCCCSC1=CC(=O)NC1=O
# output 99 to 101 °C
